normalized growth: recorded values
# ASSAY NOTES: chemical genetic growth profiling, strain panel (AID 1159580);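 note: tested at 20 µM; growth read once vehicle control cultures reached saturation at 30 °C; 1 = growth at the plate median or of vehicle wells; lower values mean less growth of the strain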
# CONDITION DETAILS: S. cerevisiae deletion strains, growth OD, locus YMR078C, strain ctf18, hits give low values
The whole screen tested about 5,500 compounds, of which about 2,000 (36%) were called active. About 18% were inconclusive and are not listed. The list shows a part of the results.
MEASURED PROPERTY: normalized growth

CC(C)Oc1ccc2c(=O)cc(-c3ccccc3)oc2c1    0.839 (active)
CC(=O)[C@H]1CCC2C3CC=C4C[C@@H](O)CC[C@]4(C)C3CC[C@@]21C (some centres not stated)    1.01 (inactive)
O=c1c(-c2ccccc2)coc2cc(O)cc(O)c12    0.964 (inactive)
C[n+]1cc2c3c(ccc2c2ccc4cc5c(cc4c21)OCO5)OCO3    0.0819 (active)
O=c1c(-c2ccc(O)cc2)coc2cc(O)cc(O)c12    1.03 (inactive)
CN(C)CCC=C1c2ccccc2CCc2ccccc21    1 (inactive)
CC(=O)O[C@@H]1CC2C(C)(C)CCC(=O)[C@]2(C)C2CC[C@@]3(C)[C@H](c4ccoc4)OC(=O)C4OC43[C@@]21C (some centres not stated)    1 (inactive)
Cc1cc(=O)c2c(o1)-c1c(cc(O)c(O)c1C(=O)O)OC2    1.02 (inactive)
CCCN1C[C@H](CSC)C[C@@H]2c3cccc4[nH]cc(c34)C[C@H]21    1.03 (inactive)
COc1c2c(cc3c1OCO3)CC[N+](C)=C2    1 (inactive)
N[C@@H]1CONC1=O    1.02 (inactive)
CC(=O)O[C@@H]1CC2C(C)(C)C(=O)CC[C@]2(C)C2CC[C@@]3(C)[C@H](c4ccoc4)OC(=O)C4OC43[C@@]21C (some centres not stated)    1.01 (inactive)
C=C1C(N)CC2CC1C2(C)C (configuration not stated)    1.01 (inactive)
COc1cc([C@@H]2c3cc4c(cc3[C@H](O)[C@H]3COC(=O)[C@@H]23)OCO4)cc(OC)c1OC    0.991 (inactive)
COc1ccc2c(=O)cc(-c3ccccc3OC)oc2c1    0.916 (inactive)
C[C@@H]1CC[C@@]2(OC1)OC1C(O)C3C4CC[C@H]5C[C@H](O[C@@H]6O[C@H](CO)[C@H](O[C@@H]7O[C@H](CO)[C@@H](O)[C@H](O[C@@H]8OC[C@@H](O)[C@H](O)[C@H]8O)[C@H]7O[C@@H]7O[C@H](CO)[C@H](O)[C@H](O[C@@H]8O[C@H](CO)[C@@H](O)[C@H](O)[C@H]8O)[C@H]7O)[C@H](O)[C@H]6O)[C@H](O)C[C@]5(C)C4CC[C@]3(C)C1[C@@H]2C (some centres not stated)    0.064 (active)
COc1ccc(-c2coc3cc(OC)cc(O)c3c2=O)cc1    0.96 (inactive)
CCC(CCC(C)[C@H]1CCC2C3CC=C4C[C@@H](O)CC[C@]4(C)C3CC[C@@]21C)C(C)C (some centres not stated)    0.971 (inactive)
COc1cccc(-c2cc(=O)c3ccc(OC)cc3o2)c1    1.1 [resistant] (active)
C[N+]1(CCCCC[N+]2(C)CCCC2)CCCC1    1.03 (inactive)
COc1cccc(-c2cc(=O)c3cc(OC)ccc3o2)c1    1.06 (inactive)
Cc1cc(=O)c2c(O)c3c(cc2o1)OC(C)(C)CC3    0.951 (inactive)
